Target: T1, recombinant human IL-6R sR (R&D systems) (human, UniProt P08887 20-358)
T1 construct: Bought soluble receptor; also called rhIL-6sR; rhIL-s6R
T1 sequence (looked up): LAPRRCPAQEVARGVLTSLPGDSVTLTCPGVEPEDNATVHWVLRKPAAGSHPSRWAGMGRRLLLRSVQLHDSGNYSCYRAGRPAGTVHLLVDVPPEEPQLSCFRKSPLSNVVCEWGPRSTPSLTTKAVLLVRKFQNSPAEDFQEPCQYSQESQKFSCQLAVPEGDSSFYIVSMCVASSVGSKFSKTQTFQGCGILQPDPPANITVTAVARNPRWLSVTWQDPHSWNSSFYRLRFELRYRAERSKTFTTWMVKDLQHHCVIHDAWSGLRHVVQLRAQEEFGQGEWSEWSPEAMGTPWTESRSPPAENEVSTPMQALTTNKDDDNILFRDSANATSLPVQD
Experiment: SPR (Biacore T100), antibody captured on Protein A, rhIL-6sR as analyte, 25 C
Reported pKd by item:
Conceptually, pKd converts a concentration in mol/L into minus its log10.

Worked set:
{"columns": ["binder", "metric", "measured"],
 "data": [
  ["RDC-23 (antibody, V domains shown, also called RDC-5H/RDC-11L) VH: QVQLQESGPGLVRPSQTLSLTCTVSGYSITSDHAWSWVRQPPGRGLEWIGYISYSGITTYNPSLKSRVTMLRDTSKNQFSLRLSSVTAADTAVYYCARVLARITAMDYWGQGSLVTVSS VL: DIQMTQSPSSLSASVGDRVTITCRASQDISSYLNWYQQKPGKAPKLLIYYTSRLHSGVPSRFSGSGSGTDFTFTISSLQPEDIATYYCGQGNRLPYTFGQGTKVEIK", "pKd", 10.60],
  ["RDC-8 (antibody, V domains shown, also called RDC-8H/L(WT)) VH: QVQLQESGPGLVRPSQTLSLTCTVSGYSITSDHAWSWVRQPPGRGLEWIGYISYSGITTYNPSLKSRVTMLRDTSKNQFSLRLSSVTAADTAVYYCARLLARITAMDYWGQGSLVTVSS VL: DIQMTQSPSSLSASVGDRVTITCRASQDISSYLNWYQQKPGKAPKLLIYYTSRLHSGVPSRFSGSGSGTDFTFTISSLQPEDIATYYCQQGNTLPYTFGQGTKVEIK", "pKd", 10.60]
]}

Param item = RDC-7 (antibody, V domains shown, also called RDC-7H/L(WT)) VH: QVQLQESGPGLVRPSQTLSLTCTVSGYSITSDHAWSWVRQPPGRGLEWIGYISYSGITTYNPSLKSRVTMLRDTSKNQFSLRLSSVTAADTAVYYCARTLARITAMDYWGQGSLVTVSS VL: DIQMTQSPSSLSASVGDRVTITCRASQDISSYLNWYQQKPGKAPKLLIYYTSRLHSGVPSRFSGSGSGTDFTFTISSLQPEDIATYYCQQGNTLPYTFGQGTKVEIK ; retrieve measured pKd.
10.42

Param item = RDC-4 (antibody, V domains shown, also called RDC-4H/L(WT)) VH: QVQLQESGPGLVRPSQTLSLTCTVSGYSITSDHAWSWVRQPPGRGLEWIGYISYSGITTYNPSLKSRVTMLRDTSKNQFSLRLSSVTAADTAVYYCARTLARATAMDYWGQGSLVTVSS VL: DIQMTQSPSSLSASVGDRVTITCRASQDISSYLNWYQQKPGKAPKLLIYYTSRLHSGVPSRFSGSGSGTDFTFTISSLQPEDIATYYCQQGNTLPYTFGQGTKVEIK ; retrieve measured pKd.
10.57

Param item = RDC-5 (antibody, V domains shown, also called RDC-5H/L(WT)) VH: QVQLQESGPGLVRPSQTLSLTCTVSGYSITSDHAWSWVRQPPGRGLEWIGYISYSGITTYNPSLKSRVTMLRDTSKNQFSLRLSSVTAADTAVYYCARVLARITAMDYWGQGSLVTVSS VL: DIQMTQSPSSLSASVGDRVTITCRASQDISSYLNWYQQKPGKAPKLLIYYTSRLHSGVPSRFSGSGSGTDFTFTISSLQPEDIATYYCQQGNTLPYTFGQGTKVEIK ; retrieve measured pKd.
10.66
